Reference source for all entries: ChEMBL document CHEMBL1132157

Below, each of the molecules is paired with its reported pIC50 value.
- Target or test system: 5-hydroxytryptamine receptor 1B (Homo sapiens)
- Sequence (P28222 whole entry): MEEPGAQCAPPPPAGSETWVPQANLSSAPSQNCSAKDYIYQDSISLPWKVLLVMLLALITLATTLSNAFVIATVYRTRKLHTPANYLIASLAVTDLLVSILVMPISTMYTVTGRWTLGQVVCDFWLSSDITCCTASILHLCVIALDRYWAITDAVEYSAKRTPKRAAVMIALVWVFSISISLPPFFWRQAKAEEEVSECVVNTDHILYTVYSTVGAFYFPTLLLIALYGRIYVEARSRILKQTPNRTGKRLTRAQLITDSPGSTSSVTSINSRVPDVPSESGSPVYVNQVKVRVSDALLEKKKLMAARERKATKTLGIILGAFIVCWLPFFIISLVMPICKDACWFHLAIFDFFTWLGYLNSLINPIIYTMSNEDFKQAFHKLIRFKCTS
- Method notes: Binding affinity at cloned human 5-hydroxytryptamine 1B receptor stably expressed in CHO cells by [3H]5-HT displacement.
- Assay type: cell-based
Keep it numeric: pIC50 is minus log10 of the concentration in mol/L.

// below: answered molecules
The molecule NC(=O)OC[C@H](NC1CCN(CCCc2c[nH]c3ccc(-n4cnnc4)cc23)CC1)c1ccccc1 showed pIC50 equal to 6.92

// sample OC[C@H](Cc1ccccc1)NC1CCN(CCCc2c[nH]c3ccc(-n4cnnc4)cc23)CC1 , its pIC50 was 6.85

The reported value for C[C@H](NC1CCN(CCCc2c[nH]c3ccc(-n4cnnc4)cc23)CC1)c1ccccc1 in terms of pIC50 is 7.02

Lab note: CC(=O)Nc1ccc([C@@H](C)NC2CCN(CCCc3c[nH]c4ccc(-n5cnnc5)cc34)CC2)cc1 gave pIC50 of 6.46

// pIC50 value for C[C@@H](NC1CCN(CCCc2c[nH]c3ccc(-n4cnnc4)cc23)CC1)[C@@H](O)c1ccccc1 : 6.68

What the record says about CC(NC1CCN(CCCc2c[nH]c3ccc(-n4cnnc4)cc23)CC1)c1ccc(F)cc1 (centres undefined) : pIC50 is 6.64

New cases:
According to the records, this molecule OC[C@@H](Cc1ccccc1)NC1CCN(CCCc2c[nH]c3ccc(-n4cnnc4)cc23)CC1 displays pIC50 of 7.00

// sample C[C@H](Cc1ccccc1)NC1CCN(CCCc2c[nH]c3ccc(-n4cnnc4)cc23)CC1 , its pIC50 was 6.77

Field pIC50 (entry COC[C@H](NC1CCN(CCCc2c[nH]c3ccc(-n4cnnc4)cc23)CC1)c1ccccc1 ) reads 6.68

* * *

- Target or test system: 5-hydroxytryptamine receptor 1E (Homo sapiens, UniProt P28566)
- Sequence (P28566 whole entry): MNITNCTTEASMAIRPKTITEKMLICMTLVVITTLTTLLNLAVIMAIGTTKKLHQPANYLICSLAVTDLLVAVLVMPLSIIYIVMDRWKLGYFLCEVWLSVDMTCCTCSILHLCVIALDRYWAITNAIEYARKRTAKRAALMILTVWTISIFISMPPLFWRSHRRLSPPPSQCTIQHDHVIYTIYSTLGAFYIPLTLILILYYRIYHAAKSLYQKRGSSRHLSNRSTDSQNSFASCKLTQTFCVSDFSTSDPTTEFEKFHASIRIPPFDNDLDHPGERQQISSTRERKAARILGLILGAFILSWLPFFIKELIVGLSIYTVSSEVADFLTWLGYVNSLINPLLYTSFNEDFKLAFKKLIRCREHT
- Method notes: Compound was tested for the displacement of [3H]5-HT binding to cloned human 5-hydroxytryptamine 1E receptor stably expressed in CHO cells
pIC50: −log10 of the molar value.
Measured property: pIC50

Value of measured pIC50 for the entry OC[C@H](NC1CCN(CCCc2c[nH]c3ccc(-n4cnnc4)cc23)CC1)c1ccc(F)cc1 : < 5.00

* * *

- Target or test system: 5-hydroxytryptamine receptor 1D (Homo sapiens)
- Sequence (P28221 whole entry): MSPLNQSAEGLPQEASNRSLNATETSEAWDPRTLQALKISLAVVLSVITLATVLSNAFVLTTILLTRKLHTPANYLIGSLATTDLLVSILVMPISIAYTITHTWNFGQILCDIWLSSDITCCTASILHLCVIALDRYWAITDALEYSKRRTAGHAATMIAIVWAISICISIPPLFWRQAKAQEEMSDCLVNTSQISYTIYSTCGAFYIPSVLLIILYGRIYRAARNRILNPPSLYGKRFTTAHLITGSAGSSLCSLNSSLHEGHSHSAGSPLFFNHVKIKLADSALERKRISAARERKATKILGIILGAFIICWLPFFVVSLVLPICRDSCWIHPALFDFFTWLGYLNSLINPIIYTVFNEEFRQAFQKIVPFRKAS
- Method notes: Binding affinity at human cloned 5-hydroxytryptamine 1D receptor stably expressed in CHO cells by [3H]5-HT displacement.
- Type: cell-based
Reported pIC50 is given for each of the following molecules.
When answering, recall that pIC50 equals minus log10 of the concentration in mol/L, and write that number alone.

Illustrative cases are given below, each with its answer.
Lab note: COC[C@H](NC1CCN(CCCc2c[nH]c3ccc(-n4cnnc4)cc23)CC1)c1ccccc1 gave pIC50 of 8.52

Lab note: CN(C1CCN(CCCc2c[nH]c3ccc(-n4cnnc4)cc23)CC1)[C@H](CO)c1ccccc1 gave pIC50 of 8.37

Quick note, pIC50 for C[C@H](NC1CCN(CCCc2c[nH]c3ccc(-n4cnnc4)cc23)CC1)c1ccccc1 landed at 9.22

OC[C@@H](Cc1ccccc1)NC1CCN(CCCc2c[nH]c3ccc(-n4cnnc4)cc23)CC1 yielded pIC50 of 8.08

More entries:
get_value(item= CC(NC1CCN(CCCc2c[nH]c3ccc(-n4cnnc4)cc23)CC1)c1ccc(F)cc1 (centres undefined) , readout=pIC50) returns 8.72

Sure, the documented pIC50 for CC(=O)Nc1ccc([C@@H](C)NC2CCN(CCCc3c[nH]c4ccc(-n5cnnc5)cc34)CC2)cc1 is 7.54

Short answer for NC(=O)OC[C@H](NC1CCN(CCCc2c[nH]c3ccc(-n4cnnc4)cc23)CC1)c1ccccc1 : pIC50 was 8.33

Query C[C@@H](NC1CCN(CCCc2c[nH]c3ccc(-n4cnnc4)cc23)CC1)C(=O)Nc1ccccc1 yields pIC50 of 8.12

According to the records, this molecule CC#CCN(C)C1CCN(CCCc2c[nH]c3ccc(-n4cnnc4)cc23)CC1 displays pIC50 of 8.01
